- target_or_test_system: Mucosa-associated lymphoid tissue lymphoma translocation protein 1 (Homo sapiens)
- Sequence (Q9UDY8 whole entry): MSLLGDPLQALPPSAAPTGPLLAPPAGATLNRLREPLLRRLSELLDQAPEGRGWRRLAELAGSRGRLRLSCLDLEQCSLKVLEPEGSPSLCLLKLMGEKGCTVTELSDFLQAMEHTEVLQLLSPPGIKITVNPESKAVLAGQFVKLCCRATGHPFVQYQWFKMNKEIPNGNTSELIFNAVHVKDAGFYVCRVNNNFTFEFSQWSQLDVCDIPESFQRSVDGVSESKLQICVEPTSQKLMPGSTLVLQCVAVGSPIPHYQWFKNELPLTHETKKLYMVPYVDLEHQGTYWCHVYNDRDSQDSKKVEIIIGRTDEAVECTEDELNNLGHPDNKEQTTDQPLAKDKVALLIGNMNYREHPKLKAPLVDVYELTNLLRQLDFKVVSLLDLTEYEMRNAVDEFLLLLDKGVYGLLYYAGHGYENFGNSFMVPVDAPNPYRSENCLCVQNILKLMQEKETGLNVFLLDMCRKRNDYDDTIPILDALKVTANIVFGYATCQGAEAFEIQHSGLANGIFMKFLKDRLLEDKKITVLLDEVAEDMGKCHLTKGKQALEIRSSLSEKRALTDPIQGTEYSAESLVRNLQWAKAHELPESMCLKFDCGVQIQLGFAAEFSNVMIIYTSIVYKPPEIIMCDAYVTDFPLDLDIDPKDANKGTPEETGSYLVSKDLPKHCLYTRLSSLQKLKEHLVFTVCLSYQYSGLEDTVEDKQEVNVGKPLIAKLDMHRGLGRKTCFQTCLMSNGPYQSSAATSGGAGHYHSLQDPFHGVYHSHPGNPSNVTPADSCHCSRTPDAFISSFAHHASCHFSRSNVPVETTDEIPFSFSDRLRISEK
- experiment: Inhibition of human MALT1 assessed as cleavage of substrate using fluorescent labeled Ac-LRSR-Rh110 peptide as substrate incubated for 30 mins followed by substrate addition and measured after 3 to 4 hrs by FRET assay
value_type: IC50 (µM)

compound | IC50 / µM
FC(F)(F)c1nccc(N[C@H]2CC[C@@H](Nc3ccnc(C(F)(F)F)n3)CC2)n1 | 2.2

A: FC(F)(F)c1nccc(N[C@]23CC[C@](Nc4ccc5nnc(Cl)n5n4)(CC2)CC3)n1
B: FC(F)(F)c1nccc(NC[C@H]2C[C@@H](Nc3ccc4nnc(Cl)n4n3)C2)n1
Request: Looking at recorded values for IC50, does A or B come in lower? Indicate your choice by writing its label.
Response: A
(A: 4.2 µM, B: 18 µM)

====

- experiment: AUC in Wistar Han rat at 0.9 mg/kg, po or 0.5 mg/kg, iv
- Format: ADME, organism-based
- Parameters: dose 0.9 mg/kg, route po
- settings: in vivo
value_type: AUC (µM·h)
Form entry: value (µM·h) — number only.

Request: Request the reported AUC associated with FC(F)(F)c1nccc(N[C@H]2CC[C@@H](Nc3ccc4nnc(Cl)n4n3)CC2)n1
Response: 3.21

====

- experiment: Metabolic stability in human liver microsomes assessed as intrinsic clearance by LC-MS/MS analysis
- Type: ADME, Microsome
- settings: read-out: CLH
value_type: microsomal CLint

Record excerpt, results attached:
structure_notation | microsomal CLint
FC(F)(F)c1nccc(N[C@H]2CC[C@@H](Oc3ccc4nnc(Cl)n4n3)CC2)n1 | < 3 µL/min/mg
FC(F)(F)c1nccc(N[C@H]2CC[C@@H](Nc3ccc4nncn4n3)CC2)n1 | < 3 µL/min/mg
FC(F)(F)c1nccc(N[C@H]2CC[C@@H](Nc3ccc4nnc(Br)n4n3)CC2)n1 | < 3 µL/min/mg
FC(F)(F)c1nccc(N2CCC(CNc3ccc4nnc(Cl)n4n3)CC2)n1 | 37 µL/min/mg
FC(F)(F)c1nccc(NC2CCN(c3ccc4nnc(Cl)n4n3)CC2)n1 | 50 µL/min/mg

Request: Please give the measured microsomal CLint for this compound: Clc1nnc2ccc(N[C@H]3CC[C@@H](Nc4ccncn4)CC3)nn12
Response: 25 µL/min/mg

Request: Reported microsomal CLint for Nc1nnc2ccc(N[C@H]3CC[C@@H](Nc4ccnc(C(F)(F)F)n4)CC3)nn12 : what is it?
Response: < 3 µL/min/mg

Request: Query (compound): FC(F)(F)c1nccc(N[C@H]2CC[C@@H](Nc3ccc4nnc(Cl)n4n3)CC2)n1 ; field requested: microsomal CLint
Response: < 3 µL/min/mg

Request: Dear colleague, I am looking for the recorded microsomal CLint of the following compound: FC(F)(F)c1nccc(N[C@H]2CC[C@@H](Nc3ccnc(C(F)(F)F)n3)CC2)n1
Response: < 3 µL/min/mg

Request: Requested field: microsomal CLint. Item: FC(F)(F)c1nccc(N2CCN(c3ccc4nnc(Cl)n4n3)CC2)n1
Response: < 3 µL/min/mg

Ref: ChEMBL document CHEMBL5143527
